Assay: pKa was evaluated
Format: physicochemical
Measured Attribute: pKa
Returns: the value as a bare number; no unit string appended.

Some solved entries appear below for comparison.
item_smiles=CN(C)CCNC(=O)c1cccc2c1nc(-c1ccc(Cl)cc1)c1ccccc12 numeric_result=2.52
item_smiles=CN(C)CCNC(=O)c1cccc2c1ncc1ccccc12.Cl.Cl numeric_result=2.95

# input for lookup
Return reported pKa; argument: `CN(C)CCNC(=O)c1cccc2c1nc(-c1ccccc1)c1ccccc12`
2.75

====

Tested on: P388
Assay: Optimal dose administered intraperitoneally on days 1,5 and 9 after intraperitoneal inoculation of 10e6 P388 leukemia cells in vivo.
Type: functional, Mus musculus
Here, each record is paired with measured OD data.
# number only, unit mg/kg/day dropped from output

Example cases with answers are listed next.
item_smiles=CN(C)CCCCNC(=O)c1cccc2c1ncc1ccccc12.Cl measured_target=P388 measured_attribute=OD numeric_result=100
item_smiles=CN(C)CCNC(=O)c1cccc2c1nc(-c1ccc(N)cc1)c1ccccc12 measured_target=P388 measured_attribute=OD numeric_result=30
item_smiles=COc1ccc(-c2nc3c(C(=O)NCCN(C)C)cccc3c3ccccc23)cc1.Cl.Cl measured_target=P388 measured_attribute=OD numeric_result=65

Please give the measured OD for this molecule: `CN(C)CCNC(=O)c1cccc2c1nc(-c1ccc([N+](=O)[O-])cc1)c1ccccc12`
65

What do we get for `CN(C)CCCCNC(=O)c1cccc2c1nc(-c1ccccc1)c1ccccc12.Cl.Cl` ?
65
